- tested_on: T1, human importin α3 (intact, with the IBB domain) (human, UniProt O00629 1-521)
- T1 construct: human importin α3 (KPNA4), intact protein with the IBB domain; codon-optimized synthetic DNA in the vector pHTP1; also called Impα3; KPNA4; source: E. coli BL21 (DE3), purified (as for ΔImpα3)
- T1 sequence (looked up): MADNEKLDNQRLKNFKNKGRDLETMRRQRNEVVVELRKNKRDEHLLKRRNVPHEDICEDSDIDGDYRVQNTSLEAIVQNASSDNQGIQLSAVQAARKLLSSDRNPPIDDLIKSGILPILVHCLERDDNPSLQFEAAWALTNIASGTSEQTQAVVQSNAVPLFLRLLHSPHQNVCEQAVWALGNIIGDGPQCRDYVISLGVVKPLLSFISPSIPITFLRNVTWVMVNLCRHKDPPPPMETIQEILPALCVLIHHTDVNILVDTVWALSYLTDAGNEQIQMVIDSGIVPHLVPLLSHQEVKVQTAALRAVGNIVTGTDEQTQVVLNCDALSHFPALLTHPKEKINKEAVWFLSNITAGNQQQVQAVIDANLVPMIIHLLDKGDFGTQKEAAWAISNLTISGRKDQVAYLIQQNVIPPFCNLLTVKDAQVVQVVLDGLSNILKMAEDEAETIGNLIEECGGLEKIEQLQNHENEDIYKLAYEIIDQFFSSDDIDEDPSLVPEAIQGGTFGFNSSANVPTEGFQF
- test_description: ITC; Impα3 or ΔImpα3 (10–20 μM) in the cell, NLS-NUPR1 peptide (150–300 μM) in the syringe; Tris 50 mM, pH 8; 298 K; single ligand binding site (1:1) model, n gives the fraction of binding-competent protein
- measurement_setup: both partners purified
List of dH values.

- binder: "Ac-YTNRPSPGGHERKLVTALQNSE-NH2 (tyrosine introduced at the N terminus for absorbance measurements; not a residue of NUPR1; also called K69A peptide; Lys69Ala; source: synthetic peptide (NZYtech, purity 95%)) [NLS-NUPR1 peptide K69A]"
  dH [kcal/mol]: -10.8
- binder: "Ac-YTNRPSPGGHERALVTKLQNSE-NH2 (tyrosine introduced at the N terminus for absorbance measurements; not a residue of NUPR1; also called K65A peptide; Lys65Ala; source: synthetic peptide (NZYtech, purity 95%)) [NLS-NUPR1 peptide K65A]"
  dH [kcal/mol]: -2.8
- binder: "Ac-YTNRPSPGGHERKLVEKLQNSE-NH2 (tyrosine introduced at the N terminus for absorbance measurements; not a residue of NUPR1; also called T68E peptide; Thr68Glu; source: synthetic peptide (NZYtech, purity 95%)) [NLS-NUPR1 peptide T68E (phospho-mimetic)]"
  dH [kcal/mol]: -11.1
- binder: "Ac-YTNRPSPGGHERKLVEALQNSE-NH2 (tyrosine introduced at the N terminus for absorbance measurements; not a residue of NUPR1; also called T68EK69A peptide; source: synthetic peptide (NZYtech, purity 95%)) [NLS-NUPR1 peptide T68EK69A]"
  dH [kcal/mol]: -7.5
